Test system: KM12
Assay: NCI tumour cell line growth inhibition, 48 h
The source made the active and inactive calls. No stated cut-off is given here; in the data, active = GI50 up to about 1.1 µM and inactive = higher.
Outcome (select one): active, inactive

Ask: What classification did Clc1ccc(/N=N/c2nc3ccccc3nc2/N=N/c2ccc(Cl)cc2Cl)c(Cl)c1 end up with in this test?
Result: inactive

Ask: Which outcome was assigned to Cc1ccccc1/N=N/c1ccc(/N=N/c2c(O)ccc3ccccc23)c(C)c1 in this test?
Result: inactive

Ask: Kindly provide the recorded test outcome for the following molecule: CCCCC1Cc2cc(OC)ccc2-c2nc3cc(OC)ccc3n21.CCCCC1Cc2cc(OC)ccc2-c2nc3ccc(OC)cc3n21 (stereo not given)
Result: inactive

Ask: Each molecule tested received a call. Report the one for O=C(c1ccccc1)c1c(C(F)(F)F)[n+]([O-])c2ccccc2[n+]1[O-] .
Result: active

Shift focus to the following entry.
Ask: Assay outcome for COC(=O)C12CCC(C(=O)OC)(Cc3c(c4ccccc4n3S(=O)(=O)c3ccccc3)C1)C2=O (stereo not given) : what was it?
Result: inactive
